- Tested on: Caenorhabditis elegans
- TEST_METHOD_NOTES: HTS runs (initial and follow-up): mOD, % Run and visual score (Table 3)
- Assay type: in vivo
- CONDITIONS_USED: Initial HTS Run
RECORDED_METRIC: Initial HTS Run % Run (%)
Answer with a number only, understood to be in %.

Consider the reported Initial HTS Run % Run for these compounds:
MOL_SMILES: Fc1ccccc1Oc1cc(NCc2cccc(C(F)(F)F)c2)ncn1
OBSERVED_MEASUREMENT: 138

MOL_SMILES: Clc1cccc(Oc2cc(NCc3ccccc3Cl)ncn2)c1
OBSERVED_MEASUREMENT: 131

# context switch: different compound, same Initial HTS Run % Run
Recorded Initial HTS Run % Run (compound Clc1cccc(CNc2cc(Oc3cccc(Cl)c3)ncn2)c1 ): 121
